These entries and their values trace back to ChEMBL document CHEMBL1926588.

assay: Cytotoxicity against human BEAS2B cells after 72 hrs by MTT assay; format: cell-based, BEAS-2B; settings: BEAS2B cells
readout_kind: GI50 at 72 h

chem_smiles | result
CSc1nc(NCCCCCO)c2cccnc2n1 | > 100 µM
CCCCC[Se]c1nc([Se]CCCCC)c2ccccc2n1 | > 100 µM
COc1ccc(CNc2nc([Se]C)nc3ccccc23)cc1 | > 100 µM
CCCCC[Se]c1nc([Se]CCCCC)c2cccnc2n1 | > 100 µM

* * *

assay: Cytotoxicity against human 184B5 cells after 72 hrs by MTT assay; type: cell-based; conditions: 184b5, 72 h
readout_kind: TGI

chem_smiles | result
COc1ccc(CNc2nc([SeH])nc3ccccc23)cc1 | > 100 µM
CCCCC[Se]c1nc(NCc2ccccc2)c2ccccc2n1 | > 100 µM
CCCCCSc1nc(NCc2ccc([Se]C)cc2)c2ccccc2n1 | > 100 µM
COc1ccc(CNc2nc(SC)nc3ccccc23)cc1 | > 100 µM
CCCCC[Se]c1nc([Se]CCCCC)c2ccccc2n1 | > 100 µM
CSc1nc(NCCCCCO)c2cccnc2n1 | > 100 µM
